biological target: Baculoviral recombinant GST-fused PI 3-kinase (p110α/p85α) (Homo sapiens); construct: GST; assay: PI 3-kinase inhibition assay
Sequence (P42336 whole entry, species assumed, the tested form may be a part): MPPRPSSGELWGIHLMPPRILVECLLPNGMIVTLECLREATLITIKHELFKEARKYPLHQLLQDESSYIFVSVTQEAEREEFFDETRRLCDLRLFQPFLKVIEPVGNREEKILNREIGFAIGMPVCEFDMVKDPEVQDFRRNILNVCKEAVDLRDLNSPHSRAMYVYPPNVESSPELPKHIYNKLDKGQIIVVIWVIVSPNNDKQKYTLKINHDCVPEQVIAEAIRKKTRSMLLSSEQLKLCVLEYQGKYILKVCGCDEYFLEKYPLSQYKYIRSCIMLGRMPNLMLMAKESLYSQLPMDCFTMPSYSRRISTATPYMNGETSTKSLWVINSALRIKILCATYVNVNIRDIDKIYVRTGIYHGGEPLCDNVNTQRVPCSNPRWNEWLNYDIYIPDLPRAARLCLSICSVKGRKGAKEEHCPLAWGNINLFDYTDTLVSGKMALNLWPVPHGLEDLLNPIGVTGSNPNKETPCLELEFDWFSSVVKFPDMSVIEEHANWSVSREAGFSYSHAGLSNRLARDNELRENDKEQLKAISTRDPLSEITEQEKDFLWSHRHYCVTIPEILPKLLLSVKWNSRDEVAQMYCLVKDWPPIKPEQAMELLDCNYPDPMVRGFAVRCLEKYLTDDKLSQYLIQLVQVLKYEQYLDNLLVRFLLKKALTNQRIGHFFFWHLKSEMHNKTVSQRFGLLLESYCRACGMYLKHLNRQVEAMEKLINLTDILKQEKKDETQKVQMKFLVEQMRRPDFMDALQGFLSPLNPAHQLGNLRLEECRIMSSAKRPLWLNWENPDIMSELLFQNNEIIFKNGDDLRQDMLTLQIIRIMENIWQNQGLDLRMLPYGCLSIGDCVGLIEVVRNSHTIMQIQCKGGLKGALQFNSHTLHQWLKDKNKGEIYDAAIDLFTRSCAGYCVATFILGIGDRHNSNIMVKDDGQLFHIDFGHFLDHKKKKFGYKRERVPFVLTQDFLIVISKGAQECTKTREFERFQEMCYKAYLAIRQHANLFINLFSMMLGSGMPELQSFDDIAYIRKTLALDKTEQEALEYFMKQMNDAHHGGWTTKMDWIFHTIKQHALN
Sequence (P27986 whole entry partner, species assumed, the tested form may be a part): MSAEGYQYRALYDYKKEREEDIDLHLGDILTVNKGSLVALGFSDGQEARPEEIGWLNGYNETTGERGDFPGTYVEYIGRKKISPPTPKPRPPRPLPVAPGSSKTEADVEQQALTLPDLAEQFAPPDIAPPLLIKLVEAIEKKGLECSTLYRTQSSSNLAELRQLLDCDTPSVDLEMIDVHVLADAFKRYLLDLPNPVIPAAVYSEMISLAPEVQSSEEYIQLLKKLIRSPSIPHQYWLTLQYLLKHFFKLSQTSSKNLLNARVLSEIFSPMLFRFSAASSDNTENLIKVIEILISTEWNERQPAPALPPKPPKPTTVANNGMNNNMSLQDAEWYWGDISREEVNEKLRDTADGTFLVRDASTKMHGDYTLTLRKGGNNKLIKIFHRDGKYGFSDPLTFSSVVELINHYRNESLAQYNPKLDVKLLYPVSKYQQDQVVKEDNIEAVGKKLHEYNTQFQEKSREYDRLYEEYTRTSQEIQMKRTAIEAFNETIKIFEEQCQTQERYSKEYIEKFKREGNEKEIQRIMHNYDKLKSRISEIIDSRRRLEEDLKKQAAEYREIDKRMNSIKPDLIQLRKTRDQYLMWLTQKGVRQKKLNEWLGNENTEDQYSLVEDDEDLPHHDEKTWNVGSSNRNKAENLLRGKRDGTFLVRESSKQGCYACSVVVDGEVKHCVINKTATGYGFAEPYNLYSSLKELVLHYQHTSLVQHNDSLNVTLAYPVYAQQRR
pIC50: −log10 of the molar value.
readoutType: pIC50

COc1ccc(-c2cc(=O)cc(N3CCOCC3)s2)cc1; 5.10
O=c1cc(-c2ccc(Cl)cc2)sc(N2CCOCC2)c1; 5.30

a = CC(C)(C)c1ccc(-c2cc(=O)cc(N3CCOCC3)s2)cc1
b = O=c1cc(-c2ccccc2)sc(N2CCOCC2)c1
input: Dear colleague, could you let me know whether a or b has the lower recorded pIC50? Thanks. Mark your answer with the label of the selected entry.
output: a
(a: 4.40, b: 5.00)
